# subject-of-test: yeast urease activity (Cryptococcus neoformans)
# Construct: endogenous in cells; host or cells: Cryptococcus neoformans H99 (ATCC 208821) yeasts in Christensen urea broth
# Sequence (O13465 whole entry): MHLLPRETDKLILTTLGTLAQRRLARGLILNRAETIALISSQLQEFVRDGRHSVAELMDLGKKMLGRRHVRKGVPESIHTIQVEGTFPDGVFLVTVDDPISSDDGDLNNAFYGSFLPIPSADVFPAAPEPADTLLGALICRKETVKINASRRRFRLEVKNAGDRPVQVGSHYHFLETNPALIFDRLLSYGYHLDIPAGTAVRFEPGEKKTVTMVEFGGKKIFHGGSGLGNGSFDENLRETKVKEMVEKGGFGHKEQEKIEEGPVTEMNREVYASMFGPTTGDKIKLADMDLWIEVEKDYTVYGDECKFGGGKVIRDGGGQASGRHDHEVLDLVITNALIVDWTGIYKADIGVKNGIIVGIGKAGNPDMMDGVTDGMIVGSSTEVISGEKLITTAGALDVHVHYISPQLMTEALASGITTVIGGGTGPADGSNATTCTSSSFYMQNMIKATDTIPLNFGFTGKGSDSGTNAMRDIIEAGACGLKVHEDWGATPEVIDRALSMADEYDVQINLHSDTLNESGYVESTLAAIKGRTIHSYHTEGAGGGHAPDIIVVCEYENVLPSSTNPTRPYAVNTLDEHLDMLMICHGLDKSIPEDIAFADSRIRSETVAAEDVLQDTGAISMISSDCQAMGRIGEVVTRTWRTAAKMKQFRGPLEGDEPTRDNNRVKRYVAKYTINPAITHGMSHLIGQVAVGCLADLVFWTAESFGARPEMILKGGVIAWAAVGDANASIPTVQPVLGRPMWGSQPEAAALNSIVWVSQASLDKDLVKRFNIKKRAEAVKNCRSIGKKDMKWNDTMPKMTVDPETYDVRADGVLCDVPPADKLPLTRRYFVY
# test-description: Inhibition of yeast urease activity in urea (Christensen) medium, colour change (MICure)
# Assay type: cell-based
# setup-conditions: Table S1; urea medium; 100% inhibition of yeast urease activity
metric-name: MICURE

Previously resolved entries follow.
{"columns": ["molecule", "MICURE"],
 "data": [
  ["Cc1ccc(NC(=[Se])NC(=O)c2ccccc2)cc1 [BSU2]", "0.5 mg/L"],
  ["COc1ccccc1NC(=S)NC(=O)c1ccccc1 [BTU4]", "≤ 0.25 mg/L"]
]}

Then this molecule:
Prompt: Which value of MICURE has been reported for O=C(NC(=S)Nc1cccc([N+](=O)[O-])c1)c1ccccc1 [BTU11] in the records?
Response: > 128 mg/L
